Test system: ABUTH
Experiment: Post-emergence Test, glasshouse, ABUTH
Format: in vivo
Details: 250 g/ha, evaluated after 13 days
property_label: percentage damage caused to the plant, five-point scale, ABUTH

INSERT INTO measurements (mol, measurement) VALUES
  ('C=CCCn1nc(Cl)c2cccc(Oc3ncc(Cl)cn3)c21', '4 (4=61-80%)'),
  ('FC(F)(F)CCn1ncc2cccc(Oc3ncc(Cl)cn3)c21', '4 (4=61-80%)'),
  ('Fc1cc(Cl)cnc1Oc1cccc2ccn(CCCC(F)(F)F)c12', '1 (1=0-20%)'),
  ('FC(F)OCCn1nc(Cl)c2cccc(Oc3ncc(Cl)cn3)c21', '4 (4=61-80%)'),
  ('Fc1cnc(Oc2cccc3c(Cl)nn(CCCC(F)(F)F)c23)nc1', '5 (5=81-100%)'),
  ('FC(F)(F)CCCn1ncc2ccc(Br)c(Oc3ncc(Cl)cn3)c21', '1 (1=0-20%)'),
  ('N#Cc1cc(Oc2ncc(Cl)cn2)c2c(cnn2CCCC(F)(F)F)c1', '2 (2=21-40%)'),
  ('Fc1cc(Cl)cnc1Oc1cccc2cnn(CCCC(F)(F)F)c12', '2 (2=21-40%)'),
  ('FC(F)(F)CCCn1nc(Cl)c2c(Cl)ccc(Oc3ncc(Cl)cn3)c21', '4 (4=61-80%)');
